Molecular target: Kir1.1 (ROMK1) (Homo sapiens (Human), UniProt P48048)
Sequence (P48048 whole entry, species assumed): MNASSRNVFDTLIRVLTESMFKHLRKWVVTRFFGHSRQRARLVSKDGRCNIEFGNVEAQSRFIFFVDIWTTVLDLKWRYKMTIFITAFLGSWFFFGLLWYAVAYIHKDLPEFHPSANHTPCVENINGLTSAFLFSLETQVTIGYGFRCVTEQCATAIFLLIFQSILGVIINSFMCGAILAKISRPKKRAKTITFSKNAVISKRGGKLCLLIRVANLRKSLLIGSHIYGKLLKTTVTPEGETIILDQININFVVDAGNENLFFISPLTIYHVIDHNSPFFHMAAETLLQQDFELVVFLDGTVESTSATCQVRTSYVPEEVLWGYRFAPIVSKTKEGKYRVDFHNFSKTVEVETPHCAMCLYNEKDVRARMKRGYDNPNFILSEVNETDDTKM
Assay: Electrophysiology Assay (whole cell voltage clamp, IonWorks Quattro)
Type: cell-based
Details: Chinese hamster ovary cells stably expressing Kir1.1; block during voltage step to 0 mV; read-out: Electrophysiology IC50
Can you tell me IC50 for the items I'm about to list?
Response body: numeric value in nM, unit text excluded.

Exercise: What IC50 appears in the records for this molecule with Kir1.1 (ROMK1) (Homo sapiens (Human), UniProt P48048)? Cc1c([C@@H]2CN3CCN(CC(O)c4ccc5c(c4)C[C@H](C)OC5=O)C[C@H]3CO2)ccc2c1COC2=O (single isomer, unassigned) [Example 45]
Key: 120

Exercise: Check Cc1c([C@H]2CN3CCN(CCc4ccc5c(c4)COC5=O)C[C@@H]3CN2)ccc(F)c1C#N [Example 106] too.
Key: 50

Exercise: Lookup COc1cc(C(O)CN2CCN3C[C@@H](c4ccc5c(c4C)COC5=O)OC[C@@H]3C2)ccc1C#N (single isomer, unassigned) [Example 47]
Key: 190

Exercise: // repeat for Cc1c([C@@H]2CN3CCN(CC(O)c4cc(F)c(C#N)c(F)c4)C[C@H]3CO2)ccc2c1COC2=O (single isomer, unassigned) [Example 49] and report
Key: 50

Exercise: Another molecule to look at: Cc1c([C@@H]2CN3CCN(CC4OCCc5c4ccc4c5COC4=O)C[C@H]3CO2)ccc2c1COC2=O (stereo partly drawn) [Example 109]
Key: 50

Exercise: Moving on to COc1c(CCN2CCN3C[C@@H](c4ccc5c(c4C)COC5=O)OC[C@@H]3C2)ccc(C#N)c1F [Example 95]
Key: 110
